Source listed as ChEMBL document CHEMBL4627403.

Provide the reported pIC50 of each item.
assay: Inhibition of recombinant Trypanosoma cruzi G6PDH expressed in Escherichia coli by fluorescence assay
pIC50: −log10 of the molar value.

For record CC(=O)O[C@H]1CC[C@@]2(C)[C@@H](CC[C@@H]3[C@@H]2CC[C@]2(C)C(=O)CC[C@@H]32)C1 the listed pIC50 is < 5.52

For record CC(C)C(=O)O[C@H]1CC[C@@]2(C)[C@@H](CC[C@@H]3[C@@H]2CC[C@]2(C)C(=O)[C@H](Br)C[C@@H]32)C1 the listed pIC50 is 6.42 to 6.82

For record C=CCC(=O)O[C@H]1CC[C@@]2(C)[C@@H](CC[C@@H]3[C@@H]2CC[C@]2(C)C(=O)[C@H](Br)C[C@@H]32)C1 the listed pIC50 is 6.42 to 6.82

For record CC(C)C(=O)O[C@H]1CC[C@@]2(C)[C@@H](CC[C@@H]3[C@@H]2CC[C@]2(C)C(=O)CC[C@@H]32)C1 the listed pIC50 is < 5.52

For record C=CCC(=O)O[C@H]1CC[C@@]2(C)[C@@H](CC[C@@H]3[C@@H]2CC[C@]2(C)C(=O)CC[C@@H]32)C1 the listed pIC50 is < 5.52

For record CC(=O)O[C@H]1CC[C@@]2(C)[C@@H](CC[C@@H]3[C@@H]2CC[C@]2(C)C(=O)[C@H](Br)C[C@@H]32)C1 the listed pIC50 is 6.42 to 6.82
